target: Calmodulin-1 (Homo sapiens) (UniProt P0DP23); test: calcium-bound CALM1 binders on microarrays, profiling panel, artefact control for SMM control-protein annotation, biochemical, small-molecule microarray, Cy5-labelled CALM1, plus calcium (AID 1112); settings: Cy5-CALM1 binding fluorescence, higher = more signal;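 also: score merges spot fluorescence with signal to noise from triplicate slides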
Mark not fulfilled for composite z-score values under -0.4, and fulfilled for everything at or above.

Can COC(=O)[C@H](C)NC(=O)CCC1CC(OC(=O)NCCc2ccc(F)cc2)CC2(CCCC(COC(=O)NCCC(C)C)O2)O1 (some centres undefined) be said to have composite z-score at or above -0.4? fulfilled

Identify whether the reported composite z-score of the following molecule is -0.4 or greater: `CO[C@H]1COC(=O)[C@@H]2CCCN2C(=O)CC=C[C@@H](C)[C@H](OC)COC(=O)[C@@H](OCc2ccccc2)C=C[C@@H]1C` not fulfilled

Entry `CC(C)CON=C1C[C@@H](O)[C@@H](O)[C@@H]2[C@@H]3C(=O)N(C(C)(C)C)C(=O)[C@@H]3CC[C@H]12` : is its composite z-score no less than -0.4? fulfilled

Has CCOC(=O)[C@H](CC(C)C)NC(=O)CCC1CC(OC(=O)NCc2cccc3ccccc23)CC2(CCCC(COC(=O)NCCCN3CCCC3=O)O2)O1 (some centres undefined) a recorded composite z-score greater than or equal to -0.4? fulfilled

Please check the record `COC(=O)[C@@H]1CC[C@H](C)[C@@H](c2ccc(C)cc2)N1C(=O)c1ccc(C=NO[C@@H]2O[C@H](COC(C)=O)[C@@H](OC(C)=O)[C@H](OC(C)=O)[C@H]2OC(C)=O)cc1` and state if its composite z-score is at or above -0.4. fulfilled

Assess whether reported composite z-score for COc1cccc([C@H]2Oc3ccc(OC)cc3C(=NOC(C)CN3CCCCc4nc(C)c(C)cc43)[C@@H]2O)c1 (some centres undefined) sits at -0.4 or higher. not fulfilled

State whether the measured composite z-score reaches -0.4, counting equality as reaching it, for CCC=CCCC(OC(=O)c1ccc(Br)cc1)C1=CCCCC1=O (centres undefined) not fulfilled

Is reported composite z-score greater than or equal to -0.4 here: `COC(=O)CC=C[C@@H](C)[C@@H](C=NOC[C@H]1O[C@H](c2ccccc2)C=C[C@@H]1Oc1ccc(OC)cc1)NS(=O)(=O)c1ccc(C)cc1` not fulfilled

In plain terms: is recorded composite z-score at least -0.4 for CCOC(=O)[C@H](CC(C)C)NC(=O)CCC1CC(OC(=O)NCc2ccc3c(c2)OCO3)CC2(CCCC(COC(=O)NCC(c3ccccc3)c3ccccc3)O2)O1 (some centres undefined) ? not fulfilled

Determine whether measured composite z-score meets or exceeds -0.4 for `CCOC(=O)NN=C1C[C@@H](O)[C@@H](O)[C@@H]2[C@@H]3C(=O)N([C@@H](C)c4ccccc4)C(=O)[C@@H]3CC[C@H]12` not fulfilled

Record `CC(=O)OC[C@H]1O[C@H](CCON=C2[C@H]3CCn4c(=O)n(-c5ccccc5)c(=O)n4[C@H]3[C@H](O)[C@@H]3O[C@H]23)C=C[C@@H]1OC(C)=O` ; criterion: composite z-score no lower than -0.4. Met? fulfilled

Dear colleague, could you confirm whether `CC(CCN1CCc2nc(-c3ccccc3)c(-c3ccccc3)cc2C1)=NOC[C@@H](O)[C@H]1O[C@@H]2OC(C)(C)O[C@@H]2[C@H]1O` has composite z-score at or above -0.4? fulfilled

Item `COC(=O)CC=C[C@@H](C)[C@@H](C=NO[C@@H](C)c1cc(-c2c(C)cc(C)cc2C)no1)NS(=O)(=O)c1ccc(C)cc1` with composite z-score of -0.4 or above? fulfilled

Does `CCOC(=O)C1=NO[C@@]2(C=C(Br)C3(OCCCO3)[C@H]3O[C@H]32)C1` have a reported composite z-score of at least -0.4? not fulfilled

###

Give composite z-score for every item shown.
test: small-molecule binders of probe aNOTCH2, primary screen, biochemical, small-molecule microarray, 635/667 nm fluorescence (AID 1121); conditions: higher = more signal;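 also: score merges feature fluorescence read at 667 nm with its signal to noise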
Respond using a number only.

The molecule listed as `CCc1cc2c(nc1CC)CCN(CCC(C)=NO[C@H](C)c1cn([C@@H]3COC[C@H]3O)nn1)C2` has a reported composite z-score of -0.0554

# molecule `COC(=O)[C@@H]1CC[C@H](C)[C@@H](c2ccc(C)cc2)N1C(=O)c1ccc(C=NO[C@@H](C)c2cn([C@H](CO)Cc3ccccc3)nn2)cc1` ; its composite z-score = -0.09

Consider `CC(C)=CCCC(C)=CCON=C1C[C@@H](O)[C@@H](O)[C@@H]2[C@@H]3C(=O)N(Cc4ccccc4)C(=O)[C@@H]3CC[C@H]12` . Its measured composite z-score is -0.175

The molecule identified as CCOC(=O)[C@H](CC(C)C)NC(=O)CCC1CC(OC(=O)NCCc2ccc(F)cc2)CC2(CCCC(COC(=O)NCCc3ccc(Cl)cc3)O2)O1 (some centres undefined) registered its composite z-score at -0.0495

###

assay: RPMI8226 myeloma cell viability, profiling panel, resazurin fluorescence, basal, 24 h, PK04 Diversity Set (AID 1180); settings: higher = more signal;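 also: RPMI8826 multiple myeloma cell line at 5000 cells per well; test concentration not given here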
Consider the following compounds; for each one, report its z-score.

Record `COc1cccc([C@H]2Oc3ccc(OC)cc3C(=NO[C@@H]3O[C@H](COC(C)=O)[C@@H](OC(C)=O)[C@H](OC(C)=O)[C@H]3OC(C)=O)[C@@H]2O)c1` , field z-score: -0.158

For record `CC(C)CON=C1C[C@@H](O)[C@@H](O)[C@@H]2[C@@H]3C(=O)N(C(C)(C)C)C(=O)[C@@H]3CC[C@H]12` the listed z-score is -0.246

Reported z-score ( `CCOC(=O)NN=C1C[C@@H](O)[C@@H](O)[C@@H]2[C@@H]3C(=O)N(Cc4ccccc4)C(=O)[C@@H]3CC[C@H]12` ) = 1.89

Value of z-score reported for the compound `CC(C)[C@@H](OCc1ccccc1)[C@H](C)C=NOC[C@@H](O)COCc1ccco1` is -0.885

# z-score of `O=C1[C@H]2[C@H]3[C@H](O)[C@H](O)CC(=NOC[C@@H](O)COCc4ccco4)[C@H]3CC[C@H]2C(=O)N1c1ccc(F)cc1F` = -0.374

Query COC(=O)[C@H](C)NC(=O)CCC1CC(OC(=O)NCc2ccc3c(c2)OCO3)CC2(CCCC(COC(=O)NCCc3ccccc3OC)O2)O1 (stereo not given in full) yields z-score of -0.229

z-score in this record for `CO[C@H]1COC(=O)CCC[C@@H](C)[C@H](OC)COC(=O)[C@@H]2CCCN2C(=O)CC=C[C@@H]1C` : 0.826

z-score reading for `COC(=O)CC=C[C@@H](C)[C@H](OCc1cccc(-c2ccccc2)c1)C1CCCCC1` : 0.403

Entry `COc1ccc(O[C@@H]2[C@H](O)CO[C@H]2C=Cc2ccccc2)cc1` — recorded z-score = -0.473

Memo: `CC(C)CCN1CCc2nc(COc3ccccc3)c3c(c2C1)CO[C@@H](C)C3` , reported z-score: 0.327

// z-score value for `CC(CCN1CCc2nc(-c3ccccc3)c(-c3ccccc3)cc2C1)=NOC[C@@H](O)[C@H]1O[C@@H]2OC(C)(C)O[C@@H]2[C@H]1O` : -0.776

Lab note: measured z-score of `CCOC(=O)CCN1C(=O)[C@H]2[C@H]3[C@H](O)[C@H](O)CC(=NNC(=O)OCc4ccccc4)[C@@H]3CC[C@H]2C1=O` was -0.663

The value of z-score measured for the compound `COc1ccc(COC(=O)NN=C2C[C@@H](O)[C@@H](O)[C@@H]3[C@@H]4C(=O)N(C5CCCCC5)C(=O)[C@@H]4CC[C@H]23)cc1` turned out to be -0.363

Item: `COc1cccc([C@H]2Oc3ccc(OC)cc3C(=NOC[C@@H](O)[C@H]3O[C@@H]4OC(C)(C)O[C@@H]4[C@H]3O)[C@@H]2O)c1` | z-score: -0.687

In plain terms, `CO[C@@H]1C=CCC(=O)N[C@@H](C)C(=O)OC[C@@H](OC)[C@H](C)CCCC(=O)OC[C@H]1C` has a documented z-score of 1.58

Looking up `CC(CCN1CCCc2nc(C)c(C)cc21)=NO[C@@H](C)c1cc(-c2c(C)cc(C)cc2C)no1` , I see its z-score listed as 0.378

Field z-score (entry CCOC(=O)[C@H](Cc1ccccc1)NC(=O)CCC1CC(OC(=O)NCc2ccc3c(c2)OCO3)CC2(CCCC(COC(=O)NCCC(C)C)O2)O1 (stereo not given in full) ) reads 0.75

Short answer for `CO[C@H]1COC(=O)[C@@H](C)COC(=O)[C@H](COCc2ccccc2)NC(=O)CC=C[C@H]1C` : z-score was 0.267

Lab book: z-score of `CCOC(=O)C1=NO[C@@]2(C=C(Br)C3(OCCCO3)[C@H]3O[C@H]32)C1` noted as -0.249

z-score reported for this compound `Cc1ccc(S(=O)(=O)n2c3ccccc3c3nnc(C(=O)c4ccccc4)nc32)cc1` : -0.222

For this compound ( `C[C@@H](c1ccccc1)N1C(=O)[C@H]2[C@H]3[C@H](O)[C@H](O)CC(=O)[C@H]3CC[C@H]2C1=O` ), measured z-score is 0.033

Entry `COC(=O)CC=C[C@@H](C)[C@@H](C=NOC[C@H]1O[C@H](c2ccccc2)C=C[C@@H]1Oc1ccc(OC)cc1)NS(=O)(=O)c1ccc(C)cc1` — recorded z-score = -0.189

// z-score lookup, compound = `COc1ccc(O[C@H]2C=C[C@@H](c3ccccc3)O[C@@H]2COC(=O)CCC(C)=NOC[C@@H](O)[C@H]2O[C@@H]3OC(C)(C)O[C@@H]3[C@H]2O)cc1` , result: 1.04

Entry `CC(C)(C)N1C(=O)[C@H]2[C@H]3[C@H](O)[C@H](O)CC(=O)[C@H]3CC[C@H]2C1=O` — recorded z-score = -0.383

The recorded z-score for entry `CCN1C(=O)[C@@H]2[C@H]3C(=CC[C@@H]2C1=O)C1(OCCCO1)[C@H]1O[C@H]1[C@H]3O` equals -5.89

Short answer for CCOC(=O)[C@H](CC(C)C)NC(=O)CCC1CC(OC(=O)NCCc2ccc(F)cc2)CC2(CCCC(COC(=O)NCCC(C)C)O2)O1 (stereo not given in full) : z-score was 0.398

Lab note: CCOC(=O)[C@H](CC(C)C)NC(=O)CCC1CC(OC(=O)NCc2ccc3c(c2)OCO3)CC2(CCCC(COC(=O)NCC(c3ccccc3)c3ccccc3)O2)O1 (stereo not given in full) gave z-score of 0.509

According to the records, this compound `CC(C)(C)N1C(=O)[C@H]2[C@H]3[C@H](O)[C@H](O)CC(=O)[C@@H]3CC[C@H]2C1=O` displays z-score of -0.0415

Reported z-score for COC(=O)[C@H](C)NC(=O)CCC1CC(OC(=O)NCCc2ccc(F)cc2)CC2(CCCC(COC(=O)NCc3cccc(C(F)(F)F)c3)O2)O1 (stereo not given in full) was 0.436

Looking up `CO[C@H]1COC(=O)[C@@H]2CCCN2C(=O)CC=C[C@@H](C)[C@H](OC)COC(=O)[C@@H](OCc2ccccc2)C=C[C@@H]1C` , I found its z-score recorded as 0.552
